assaySystem: Rad51-BRC repeat binding (Homo sapiens, UniProt Q06609)
Sequence (Q06609 1-339): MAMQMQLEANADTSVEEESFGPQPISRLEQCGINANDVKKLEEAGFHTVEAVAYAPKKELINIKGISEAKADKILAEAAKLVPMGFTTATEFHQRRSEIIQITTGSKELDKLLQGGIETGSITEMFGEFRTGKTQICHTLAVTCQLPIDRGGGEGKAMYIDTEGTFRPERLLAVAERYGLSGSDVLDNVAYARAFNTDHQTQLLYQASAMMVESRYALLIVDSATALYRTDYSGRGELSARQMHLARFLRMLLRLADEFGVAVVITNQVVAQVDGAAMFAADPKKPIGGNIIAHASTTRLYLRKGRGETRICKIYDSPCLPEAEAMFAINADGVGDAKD
assayProcedure: SPR (Biacore) competitive binding assay, solution competition format
testConditions: Biacore competitive binding assay; read-out: IC50
propertyMeasured: IC50 (nM)
Use nM as the unit, but write only the number.

Memo: O=S(=O)(Cc1ccccc1)N1C=Cc2ccccc2C1c1c[nH]c2ccccc12 (stereo not shown) [IBR2] , reported IC50: 110
